Entry source: the supplement of paper PMC3898565

system: U87; assay: cell viability relative to vehicle control; higher = less growth inhibition (less active); settings: 10 µM; 72 h;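 further: viable cell number estimated from Alamar Blue fluorescence read at 560/90, part of a single-dose primary screen of an FDA-approved drug library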
Structures can show the parent of a compound that is named as a salt.
In this section we review reported cell viability values for a set of molecules.
REPORTED METRIC: cell viability

- MOLECULE: "C[C@H](CCC(=O)O)[C@H]1CC[C@H]2[C@@H]3C(=O)C[C@@H]4CC(=O)CC[C@]4(C)[C@H]3CC(=O)[C@]12C"
  RESULT: "103%"
- MOLECULE: "O=C1CC[C@@H](C(=O)N2CSC[C@H]2C(=O)O)N1"
  RESULT: "99.4%"
- MOLECULE: "COc1ccnc(C[S+]([O-])c2nc3cc(OC(F)F)ccc3[nH]2)c1OC (stereo unspecified)"
  RESULT: "125%"
- MOLECULE: "CC(C)c1ccc2oc3nc(N)c(C(=O)O)cc3c(=O)c2c1"
  RESULT: "107%"
- MOLECULE: "OCCOCCN1CCN(C2=Nc3ccccc3Sc3ccccc32)CC1"
  RESULT: "99.6%"
- MOLECULE: "Cc1ccnc2c1NC(=O)c1cccnc1N2C1CC1"
  RESULT: "107%"
- MOLECULE: "Oc1ccc(/C=C/c2cc(O)cc(O)c2)cc1"
  RESULT: "101%"
- MOLECULE: "O=C(c1ccc(F)cc1)C1CCN(CCn2c(=S)[nH]c3ccccc3c2=O)CC1"
  RESULT: "99.9%"
- MOLECULE: "CN(C)CCc1c[nH]c2ccc(Cn3cncn3)cc12"
  RESULT: "101%"
- MOLECULE: "CC(C)(C)C(O)/C=C/c1ccc2c(c1)OCO2 (stereo unspecified)"
  RESULT: "106%"
- MOLECULE: "COCCCC/C(=N\\OCCN)c1ccc(C(F)(F)F)cc1"
  RESULT: "106%"
- MOLECULE: "C[C@H]1C[C@H]2[C@@H]3CCC4=CC(=O)C=C[C@]4(C)[C@@]3(Cl)[C@@H](O)C[C@]2(C)[C@@]1(O)C(=O)CO"
  RESULT: "106%"
- MOLECULE: "COc1cccc2c1C(=O)c1c(O)c3c(c(O)c1C2=O)C[C@@](O)(C(=O)CO)C[C@@H]3O[C@H]1C[C@H](N)[C@@H](O)[C@H](C)O1"
  RESULT: "23.3%"
- MOLECULE: "CC[C@@H]1C(=O)OC[C@@H]1Cc1cncn1C"
  RESULT: "101%"
- MOLECULE: "COc1ccccc1N1CCN(CCCNc2cc(=O)n(C)c(=O)n2C)CC1"
  RESULT: "109%"
- MOLECULE: "N[C@@H]1CONC1=O"
  RESULT: "96.3%"
- MOLECULE: "COc1ccc(CC(C)NCC(O)c2ccc(O)c(NC=O)c2)cc1 (stereo unspecified)"
  RESULT: "98.7%"
- MOLECULE: "CC(C(=O)O)c1ccc(CC2CCCC2=O)cc1 (stereo unspecified)"
  RESULT: "99.3%"
- MOLECULE: "COc1cc([C@@H]2c3cc4c(cc3[C@@H](O[C@@H]3O[C@@H]5CO[C@@H](C)O[C@H]5[C@H](O)[C@H]3O)[C@H]3COC(=O)[C@H]23)OCO4)cc(OC)c1O [Etoposide]"
  RESULT: "70.5%"
- MOLECULE: "C[C@@H]1C[C@H]2[C@@H]3C[C@H](F)C4=CC(=O)C(Cl)=C[C@]4(C)[C@@]3(F)[C@@H](O)C[C@]2(C)[C@@]1(O)C(=O)CO"
  RESULT: "102%"
- MOLECULE: "CC(=O)[C@]1(O)Cc2c(O)c3c(c(O)c2[C@@H](O[C@H]2C[C@H](N)[C@H](O)[C@H](C)O2)C1)C(=O)c1ccccc1C3=O [Idarubicin HCL]"
  RESULT: "31.6%"
- MOLECULE: "CC(=O)[C@H]1CC[C@H]2[C@@H]3CCC4=CC(=O)CC[C@]4(C)[C@H]3CC[C@]12C"
  RESULT: "107%"
- MOLECULE: "C=C1/C(=C\\C=C2/CCC[C@]3(C)[C@@H]([C@H](C)CCCC(C)(C)O)CC[C@@H]23)C[C@@H](O)C[C@@H]1O"
  RESULT: "105%"
- MOLECULE: "C[C@@H]1C[C@H]2[C@@H]3CCC4=CC(=O)C=C[C@]4(C)[C@@]3(F)[C@@H](O)C[C@]2(C)[C@H]1C(=O)CO"
  RESULT: "106%"
- MOLECULE: "CC1CCN(CCCC(=O)c2ccc(F)cc2)CC1"
  RESULT: "106%"
- MOLECULE: "CN1CCN(CCCN2c3ccccc3Sc3ccc(C(F)(F)F)cc32)CC1"
  RESULT: "103%"
- MOLECULE: "CCC(=O)O[C@]1(C(=O)SCF)[C@H](C)C[C@H]2[C@@H]3C[C@H](F)C4=CC(=O)C=C[C@]4(C)[C@@]3(F)[C@@H](O)C[C@@]21C"
  RESULT: "105%"
- MOLECULE: "COC(=O)C1=C(C)NC(C)=C(C(=O)OC)C1c1ccccc1[N+](=O)[O-]"
  RESULT: "105%"
- MOLECULE: "OCc1cc(C(O)CNCCCCCCOCCCCc2ccccc2)ccc1O (stereo unspecified)"
  RESULT: "106%"
- MOLECULE: "O=c1cnn([C@@H]2O[C@H](CO)[C@@H](O)[C@H]2O)c(=O)[nH]1"
  RESULT: "94.8%"
- MOLECULE: "O=C(O)/C=C/c1ccc(Cn2ccnc2)cc1"
  RESULT: "104%"
- MOLECULE: "Cc1[nH]cnc1CN1CCc2c(c3ccccc3n2C)C1=O"
  RESULT: "93.5%"
- MOLECULE: "CCN1CCC[C@H]1CNC(=O)c1cc(S(N)(=O)=O)ccc1OC"
  RESULT: "102%"
- MOLECULE: "Cc1c(O)cccc1C(=O)N[C@@H](CSc1ccccc1)[C@H](O)CN1C[C@H]2CCCC[C@H]2C[C@H]1C(=O)NC(C)(C)C"
  RESULT: "102%"
- MOLECULE: "Nc1ccc(O)c(C(=O)O)c1 [5-Amino-2-hydroxy-benzoic acid]"
  RESULT: "103%"
- MOLECULE: "COc1cc(C)nc(-n2nc(C)cc2OC)n1"
  RESULT: "104%"
